System: OVCAR-5
Test: NCI tumour cell line growth inhibition, 48 h
The source made the active and inactive calls. Rule as the data show it: active = GI50 up to about 1.1 µM and inactive = higher.
Outcomes: active, inactive

# COMPOUND, LABEL CLASS
rows = [
    ("COc1cc2c(c(OC)c1OC)-c1ccc(SC)c(=O)cc1[C@@H](NC(=O)C(F)(F)F)CC2", "active"),
    ("CCC(C)[C@H](NC(=O)N[C@H](C)c1ccccc1)C(=O)OC (some centres undefined)", "inactive"),
    ("CCOC(CI)O[C@@H]1C=C[C@H](OC(C)=O)C1 (some centres undefined)", "inactive"),
    ("C=C1CC(OC)(C(OC)C(=O)N[C@H]2OCO[C@H]3C2O[C@H](C[C@@H](COC)OC)C(C)(C)C3OC)O[C@H](C)[C@@H]1C (some centres undefined)", "inactive"),
    ("Nc1ccc(Oc2ccc(C3(c4ccc(Oc5ccc(N)c(O)c5)cc4)C4CC5CC(C4)CC3C5)cc2)cc1O", "inactive"),
    ("CCOC(=O)C(NO)C(Sc1ccccc1)c1ccc(OC)cc1 (centres undefined)", "inactive"),
    ("O=CC1OC(=O)c2cc(O)c(O)c(O)c2-c2c(cc(O)c(O)c2O)C(=O)OC1C1OC(=O)c2cc(O)c(O)c(O)c2-c2c(O)c(O)c3oc(=O)c4c(c(O)c(O)c5oc(=O)c2c3c54)-c2c(cc(O)c(O)c2O)C(=O)OCC1O (centres undefined)", "inactive"),
    ("CCC(CN(C)C)C(=O)c1ccco1 (centres undefined)", "inactive"),
    ("COc1cc([C@@H]2OC(=O)C3C2C(=O)O[C@H]3c2ccc(O)c(OC)c2)ccc1O (some centres undefined)", "inactive"),
]

###

Tested on: LOX IMVI
Experiment: NCI tumour cell line growth inhibition, 48 h
Activity calls are given as the source filed them. Rule as the data show it: active = GI50 up to about 1.1 µM and inactive = higher.
Outcomes: Y = active, N = inactive

# COMPOUND, LABEL CLASS
measured = [
    ("O=C(/C=C/c1ccccc1)CCN1CCCCC1", "N"),
    ("O=c1cc(N2CCCC2)[nH]c(=O)n1-c1ccc(Cl)cc1", "N"),
    ("CC[C@@]1(O)C(=O)OCc2c1cc1n(c2=O)Cc2c-1nc1ccc(O)cc1c2CC[Si](C)(C)C", "Y"),
    ("C[C@@H]1C(=O)O[C@H]1[C@H](O)CO", "N"),
    ("CCCCCCCC1(N=[N+]=[N-])C(=O)c2ccccc2N(C)C1=O (stereo not drawn)", "N"),
    ("COc1cc2c(cc1OC)C(=O)C1(C2)[C@H](c2ccccc2)C2C(=O)c3cc(OC)c(OC)cc3C2[C@H]1c1ccccc1 (stereo partly drawn)", "N"),
    ("Cn1c2ccccc2c(=O)c2cccc(C(=O)NCC(=O)O)c21", "N"),
    ("COc1cccc2c1OC1c3ccccc3OCC1C2 (stereo not drawn)", "N"),
    ("CSc1ncc2c(C#N)c3sc4ccccc4n3c(=O)c2n1", "N"),
    ("CCN(CC)CCC(=O)/C=C/c1ccccc1", "N"),
    ("C[N+]1(C)CN(c2ccccc2)C2(CCN(CCCC(=O)c3cccs3)CC2)C1=O", "N"),
    ("COc1cc(/C=C/c2cc(/C=C/c3ccc(O)c(OC)c3)oc(=O)c2)ccc1O", "N"),
    ("Cc1ccc(S(=O)(=O)N/N=C2\\C3CC4CC(C3)C2C4)cc1 (stereo not drawn)", "N"),
    ("C/C(=N\\Nc1cc(CN2CCCC2)c(-c2ccc(Cl)cc2)nn1)C(=O)O", "N"),
    ("COc1cc(N)c2[nH]c3c(C)ccc(C)c3c2c1", "N"),
    ("COc1cc2c(c(OC)c1OC)-c1ccc(SC)c(=O)cc1[C@@H](NC(=O)C(F)(F)F)CC2", "Y"),
    ("O=c1c2cnccc2cc2c3ccccc3ccn12", "N"),
    ("COc1ccc2[nH]cc(CCNC(C)=O)c2c1", "N"),
    ("CN(C)CC1CCCC/C1=N/O (stereo not drawn)", "N"),
    ("COC(=O)N[C@H](C(=O)O)C(C)O[Si](C)(C)C(C)(C)C (stereo partly drawn)", "N"),
    ("COc1ccc(Nc2nnc(-c3nsc4ccccc34)s2)cc1", "N"),
    ("CCCCCCCCCCCCCCCCOP(=O)([O-])OCC[N+](C)(C)C", "N"),
    ("CCOC(=O)C1OC(=O)CC1C1(C(=O)OCC)C=CC(=O)O1 (stereo not drawn)", "N"),
]
